Each recorded value in this set is attributed to patent US20210246166A1.

Target: T1, Recombinant human MASP1 enzyme (fragment corresponding to amino acids 297-699, C-terminal His Tag) (human, UniProt P48740 297-699)
T1 sequence: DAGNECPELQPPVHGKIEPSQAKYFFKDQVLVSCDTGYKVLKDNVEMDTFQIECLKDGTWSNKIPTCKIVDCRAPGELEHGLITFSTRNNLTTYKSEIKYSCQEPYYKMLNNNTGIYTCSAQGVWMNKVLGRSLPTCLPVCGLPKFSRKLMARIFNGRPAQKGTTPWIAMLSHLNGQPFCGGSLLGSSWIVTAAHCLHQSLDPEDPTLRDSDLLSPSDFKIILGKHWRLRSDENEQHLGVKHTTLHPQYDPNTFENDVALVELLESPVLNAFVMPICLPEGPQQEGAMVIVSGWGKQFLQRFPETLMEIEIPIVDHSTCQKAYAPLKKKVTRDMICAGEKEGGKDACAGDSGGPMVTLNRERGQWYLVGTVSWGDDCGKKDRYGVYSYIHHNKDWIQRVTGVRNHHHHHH
Assay: cell-based or functional assay
Bridge positions count the residues as written; N and C are the ends. Square brackets hold non-standard residues; d marks the D form. Ends that are not written are not given here. Oic = O=C(O)[C@@H]1C[C@@H]2CCCC[C@@H]2N1; tBuAla = CC(C)(C)C[C@H](N)C(=O)O; Pen = CC(C)(S)[C@H](N)C(=O)O; Orn = NCCC[C@H](N)C(=O)O
Overview of reported human MASP1 IC50 across a group of binders:
measuredMetric: human MASP1 IC50 (nM)

[[record]]
binder = "{2‑(3-Pyridyl)acetyl}-ICSRS[tBuAla]PPI[Pen]IP-NH2 (disulfide 2-10) [(2-(3-Pyridyl)acetic acid)-IC+SRS-((tBu)A)-PPI-(Pen)+IP-NH2]"
testresult = 7

[[record]]
binder = "AICSRS[tBuAla]PPICIDD-OH (disulfide 3-11; N-terminus assumed; SMILES CC[C@H](C)[C@H](NC(=O)[C@H](C)N)C(=O)N[C@H]1CSSC[C@@H](C(=O)N[C@H](C(=O)N[C@@H](CC(=O)O)C(=O)N[C@@H](CC(=O)O)C(=O)O)[C@@H](C)CC)NC(=O)[C@H]([C@@H](C)CC)NC(=O)[C@@H]2CCCN2C(=O)[C@@H]2CCCN2C(=O)[C@H](CC(C)(C)C)NC(=O)[C@H](CO)NC(=O)[C@H](CCCNC(=N)N)NC(=O)[C@H](CO)NC1=O) [AIC+SRS-((tBu)A)-PPIC+IDD-OH]"
testresult = 5.8

[[record]]
binder = "[Orn]ICSRS[tBuAla]PPICI-NH2 (disulfide 3-11; N-terminus assumed; SMILES CC[C@H](C)[C@H](NC(=O)[C@@H]1CSSC[C@H](NC(=O)[C@@H](NC(=O)[C@@H](N)CCCN)[C@@H](C)CC)C(=O)N[C@@H](CO)C(=O)N[C@@H](CCCNC(=N)N)C(=O)N[C@@H](CO)C(=O)N[C@@H](CC(C)(C)C)C(=O)N2CCC[C@H]2C(=O)N2CCC[C@H]2C(=O)N[C@@H]([C@@H](C)CC)C(=O)N1)C(N)=O) [(Orn)-IC+SRS-((tBu)A)-PPIC+I-NH2]"
testresult = 4.8

[[record]]
binder = "{Tetrahydro‑2H‑pyran‑3‑ylacetic acid}-ICSRSLP[Oic]I[Pen]IP-NH2 (disulfide 2-10) [(Tetrahydro-2H-pyran-3-ylacetic acid)-IC+SRSLP-(Oic)-I-(Pen)+IP-NH2]"
testresult = 17

[[record]]
binder = "[dA]ICSRSLP[Oic]I[Pen]IP-NH2 (disulfide 3-11; N-terminus assumed; SMILES CC[C@H](C)[C@H](NC(=O)[C@@H](C)N)C(=O)N[C@H]1CSSC(C)(C)[C@@H](C(=O)N[C@H](C(=O)N2CCC[C@H]2C(N)=O)[C@@H](C)CC)NC(=O)[C@H]([C@@H](C)CC)NC(=O)[C@@H]2C[C@@H]3CCCC[C@@H]3N2C(=O)[C@@H]2CCCN2C(=O)[C@H](CC(C)C)NC(=O)[C@H](CO)NC(=O)[C@H](CCCNC(=N)N)NC(=O)[C@H](CO)NC1=O) [aIC+SRSLP-(Oic)-I-(Pen)+IP-NH2]"
testresult = 4.3

